For each entry below, report its 5-HT (inhibition of reuptake of serotonin, % inhibition) value.
# targetDesc: serotonin (5-HT) reuptake (Rattus norvegicus)
# Construct: synaptosomes are freshly isolated from areas of the rat brain; from tissue; host or cells: rat brain synaptosomes (P2 fraction)
# Sequence (P31652 whole entry): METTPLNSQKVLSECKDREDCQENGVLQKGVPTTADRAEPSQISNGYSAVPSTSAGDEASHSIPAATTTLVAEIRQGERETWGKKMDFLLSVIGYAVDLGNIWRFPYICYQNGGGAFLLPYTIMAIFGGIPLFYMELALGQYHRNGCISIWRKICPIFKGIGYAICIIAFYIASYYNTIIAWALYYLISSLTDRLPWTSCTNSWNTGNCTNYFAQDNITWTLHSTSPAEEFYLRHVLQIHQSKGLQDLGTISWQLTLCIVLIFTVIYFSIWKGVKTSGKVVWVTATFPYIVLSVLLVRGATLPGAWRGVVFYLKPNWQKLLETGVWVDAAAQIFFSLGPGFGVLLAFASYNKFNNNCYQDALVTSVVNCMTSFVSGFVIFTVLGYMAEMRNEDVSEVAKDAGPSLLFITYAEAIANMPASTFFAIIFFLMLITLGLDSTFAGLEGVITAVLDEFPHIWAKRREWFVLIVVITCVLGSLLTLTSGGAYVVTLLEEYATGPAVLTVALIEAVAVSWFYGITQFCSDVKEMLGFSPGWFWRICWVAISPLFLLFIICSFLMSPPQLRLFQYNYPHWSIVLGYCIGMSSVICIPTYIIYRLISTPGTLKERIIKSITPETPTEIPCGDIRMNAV
# assay: Inhibition of serotonin (5HT) reuptake in synaptosomes from rat brain
# Assay type: biochemical
# testSettings: test concentration of 10 μM
Only the number, expressed in %, is required.

Field 5-HT (inhibition of reuptake of serotonin, % inhibition) (system: serotonin (5-HT) reuptake (Rattus norvegicus)) for entry COc1cc(C)c(S(=O)(=O)N(C)CCOCC(=O)NCC2CCC(C(CCc3ccccc3)N(C)C)CC2)c(C)c1 (stereo not shown) = 84

Field 5-HT (inhibition of reuptake of serotonin, % inhibition) (system: serotonin (5-HT) reuptake (Rattus norvegicus)) for entry COc1ccc(S(=O)(=O)N2CCCCC2COCC(=O)NC2CCC(C(c3cccc(F)c3)N(C)C)CC2)c(OC)c1 (stereo not shown) = 78

Field 5-HT (inhibition of reuptake of serotonin, % inhibition) (system: serotonin (5-HT) reuptake (Rattus norvegicus)) for entry CN(C)C(c1ccc(F)cc1)C1CCC(NC(=O)COC2CCN(S(=O)(=O)c3ccc(Cl)cc3Cl)C2)CC1 (stereo not shown) = 89

Field 5-HT (inhibition of reuptake of serotonin, % inhibition) (system: serotonin (5-HT) reuptake (Rattus norvegicus)) for entry CN(C)C(c1ccc(F)cc1)C1CCC(CCNC(=O)COC2CCN(S(=O)(=O)c3cccc(C(F)(F)F)c3)C2)CC1 (stereo not shown) = 89

Field 5-HT (inhibition of reuptake of serotonin, % inhibition) (system: serotonin (5-HT) reuptake (Rattus norvegicus)) for entry COc1cc(C)c(S(=O)(=O)N2CCC(CCOCC(=O)NCCC3CCC(C(c4ccc(F)cc4)N(C)C)CC3)CC2)c(C)c1C (stereo not shown) = 99

Field 5-HT (inhibition of reuptake of serotonin, % inhibition) (system: serotonin (5-HT) reuptake (Rattus norvegicus)) for entry COc1ccc(S(=O)(=O)N2CCCCC2COCC(=O)NCC2CCC(C(c3ccc(Cl)cc3)N(C)C)CC2)c(OC)c1 (stereo not shown) = 78

Field 5-HT (inhibition of reuptake of serotonin, % inhibition) (system: serotonin (5-HT) reuptake (Rattus norvegicus)) for entry COc1cc(C)c(S(=O)(=O)N2CCN(CCOCC(=O)NCC3CCC(C(c4cccc(F)c4)N(C)C)CC3)CC2)c(C)c1C (stereo not shown) = 96

Field 5-HT (inhibition of reuptake of serotonin, % inhibition) (system: serotonin (5-HT) reuptake (Rattus norvegicus)) for entry COc1ccc(S(=O)(=O)N2CCC(OCC(=O)NC3CCC(C(c4ccc(F)cc4)N(C)C)CC3)C2)cc1OC (stereo not shown) = 86

Field 5-HT (inhibition of reuptake of serotonin, % inhibition) (system: serotonin (5-HT) reuptake (Rattus norvegicus)) for entry COc1ccc(S(=O)(=O)N2CCCCC2COCC(=O)NCCC2CCC(C(c3ccc(Cl)cc3)N(C)C)CC2)cc1OC (stereo not shown) = 81

Field 5-HT (inhibition of reuptake of serotonin, % inhibition) (system: serotonin (5-HT) reuptake (Rattus norvegicus)) for entry COc1cc(C)c(S(=O)(=O)N(CCOCC(=O)NC2CCC(C(c3cccc(F)c3)N(C)C)CC2)Cc2ccccc2)c(C)c1 (stereo not shown) = 89
